# target_system: T1, human IL-1RAcP on 293T/17-FR cells (human, UniProt Q9NPH3 21-570)
# T1 sequence (looked up): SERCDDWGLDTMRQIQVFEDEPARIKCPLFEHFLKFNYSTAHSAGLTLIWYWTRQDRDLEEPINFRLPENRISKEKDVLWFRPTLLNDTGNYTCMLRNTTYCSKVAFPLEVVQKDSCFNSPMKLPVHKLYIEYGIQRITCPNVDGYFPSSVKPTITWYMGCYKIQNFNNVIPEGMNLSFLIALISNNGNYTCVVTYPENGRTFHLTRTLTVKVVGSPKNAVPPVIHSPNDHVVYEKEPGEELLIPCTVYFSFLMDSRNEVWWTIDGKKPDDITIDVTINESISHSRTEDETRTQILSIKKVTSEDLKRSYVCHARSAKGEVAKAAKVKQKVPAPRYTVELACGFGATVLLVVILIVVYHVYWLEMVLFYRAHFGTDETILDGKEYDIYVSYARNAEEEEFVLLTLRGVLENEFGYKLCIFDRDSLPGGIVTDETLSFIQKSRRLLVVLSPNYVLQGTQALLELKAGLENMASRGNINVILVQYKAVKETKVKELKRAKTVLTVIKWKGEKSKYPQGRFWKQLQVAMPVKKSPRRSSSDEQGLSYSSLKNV
# experiment_description: cell-based or functional assay
measurement_name: functional reporter gene assay (% inhibition), 0.04 µg/mL mAb (%)
API: value field is a number in %; no unit string.

Solved entries:
[[record]]
binder = "P013.S.01.B.H03 (antibody, V domains shown, rabbit monoclonal antibody; also called P013.A.00045.A02) VH: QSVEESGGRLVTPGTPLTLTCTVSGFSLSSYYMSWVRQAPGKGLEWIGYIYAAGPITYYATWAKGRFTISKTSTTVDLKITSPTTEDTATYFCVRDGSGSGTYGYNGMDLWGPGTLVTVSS VL: AYDMTQTPASVEAAVGGTVNIKCQASQSISNWLAWYQQKPGQPPKLLIYRASTLASGVSSRFKGSGSGTQFTLTISGVESADAATYYCQQGASTTDVDNVFGGGTEVVVK"
unit_abbrev = "%"
recorded_value = 28

[[record]]
binder = "P013.S.02.B.A01 (antibody, V domains shown, rabbit monoclonal antibody; also called P013.A.00087.A07) VH: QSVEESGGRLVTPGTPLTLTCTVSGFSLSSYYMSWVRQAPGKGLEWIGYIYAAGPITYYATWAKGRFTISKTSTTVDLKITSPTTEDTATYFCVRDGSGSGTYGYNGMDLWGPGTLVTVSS VL: AYDMTQTPASVEAAVGGTVTIKCQASQSISNWLAWYQQKPGQRPKLLIYRASTLASGVSSRFKGSGSGTQFTLTISGVESADAATYYCQQGASTTDVDNVFGGGTEVVVK"
unit_abbrev = "%"
recorded_value = 7


Now take the following binder into account.
Q: What functional reporter gene assay (% inhibition), 0.04 µg/mL mAb value was documented for this binder, P013.S.01.B.H04 (antibody, V domains shown, rabbit monoclonal antibody; also called P013.A.00014.G05) VH: QSVEESGGRLVTPGTPLTLTCTVSGFSLDSYAMGWVRQAPGKGLEWIGIINSYGSIYYASWAKGRFTISKTSTTVDLKMTSLTTEDTATYFCARSAYSNNGDRLHLWGQGTLVTVSS VL: DIVMTQTPSPVSGAVGGTVTIKCQASEDIYSNLAWYQQKPGQPPKLLIYYVSTLESGVPSRFKGSRSGTDYTLTISDLESADAATYYCQCTEGGSGSDYTFGGGTEVVVK ?
Ans: 10
